Field: MIC. Provide a value for each of the compounds that follow.
# Test system: Mycobacterium kansasii
# METHOD SUMMARY: Antimycobacterial activity against Mycobacterium kansasii isolate 6509/96 after 14 days
# Type: functional
# CONDITION SET: isolate 6509/96, 336 h
Field format: number, assumed µM, no unit text.

Ask | Bench note: what MIC did O=C(N[C@@H](Cc1ccccc1)C(=O)Oc1ccc(Cl)cc1C(=O)Nc1ccc(Cl)c(Cl)c1)OCc1ccccc1 show?
Reply | 8

Ask | I'd like to know its MIC. The compound in question is C[C@@H](NC(=O)OCc1ccccc1)C(=O)Oc1ccc(Cl)cc1C(=O)Nc1ccc(Cl)cc1
Reply | 8

Ask | Reported MIC, compound C[C@@H](NC(=O)OCc1ccccc1)C(=O)Oc1ccc(Cl)cc1C(=O)Nc1ccc(Br)cc1 : ____
Reply | 16

Ask | What measured MIC goes with O=C(N[C@@H](Cc1ccccc1)C(=O)Oc1cc(Cl)ccc1C(=O)Nc1ccc(Cl)cc1)OCc1ccccc1 ?
Reply | 8

Ask | MIC for O=C(N[C@@H](Cc1ccccc1)C(=O)Oc1ccc(Cl)cc1C(=O)Nc1cccc(Cl)c1)OCc1ccccc1 ?
Reply | 32

Ask | What does the record list as MIC for O=C(N[C@H](Cc1ccccc1)C(=O)Oc1ccc(Cl)cc1C(=O)Nc1ccc(Cl)c(Cl)c1)OCc1ccccc1 ?
Reply | 8

Ask | Given the compound C[C@H](NC(=O)OCc1ccccc1)C(=O)Oc1ccc(Cl)cc1C(=O)Nc1ccc(Cl)c(Cl)c1 , what is its reported MIC?
Reply | 16

Ask | So what does the record say about MIC for O=C(N[C@@H](Cc1ccccc1)C(=O)Oc1ccc(Cl)cc1C(=O)Nc1ccc(Cl)cc1)OCc1ccccc1 ?
Reply | 16

====

Give measured MIC for each item. Keep answers brief.
# Tested on: Mycobacterium kansasii
# METHOD SUMMARY: Antimycobacterial activity against Mycobacterium kansasii isolate 6509/96 after 21 days
# Format: functional
# CONDITION SET: isolate 6509/96, 504 h
Give the quantity in µM, number only.

Ask | Please give the measured MIC for this molecule: CC(C)[C@H](NC(=O)OCc1ccccc1)C(=O)Oc1ccc(Cl)cc1C(=O)Nc1ccc(Cl)cc1
Reply | 16

Ask | Please report the recorded MIC for CC(C)[C@@H](NC(=O)OCc1ccccc1)C(=O)Oc1ccc(Cl)cc1C(=O)Nc1ccc(Cl)c(Cl)c1 .
Reply | 16

Ask | Could you share which MIC value was measured for O=C(N[C@H](Cc1ccccc1)C(=O)Oc1ccc(Cl)cc1C(=O)Nc1cccc(Cl)c1)OCc1ccccc1 ?
Reply | 16

Ask | I am curious: what MIC value has been reported for O=C(N[C@H](Cc1ccccc1)C(=O)Oc1ccc(Cl)cc1C(=O)Nc1ccc(Cl)cc1)OCc1ccccc1 ?
Reply | 16

Ask | # get_value(readout='MIC', item= O=C(CNC(=O)OCc1ccccc1)Oc1ccc(Cl)cc1C(=O)Nc1ccc(Cl)c(Cl)c1 )
Reply | 8

Ask | Would you kindly share the measured MIC for NNC(=O)c1ccncc1 ?
Reply | 8

Ask | Looking for the measured MIC of O=C(N[C@H](Cc1ccccc1)C(=O)Oc1ccc(Cl)cc1C(=O)Nc1ccc(Cl)c(Cl)c1)OCc1ccccc1 , can you help?
Reply | 8

Ask | Tell me the measured MIC of O=C(N[C@@H](Cc1ccccc1)C(=O)Oc1ccc(Cl)cc1C(=O)Nc1cccc(Cl)c1)OCc1ccccc1 , please.
Reply | 32

Ask | What does the record list as MIC for O=C(N[C@@H](Cc1ccccc1)C(=O)Oc1ccc(Cl)cc1C(=O)Nc1ccc(Cl)cc1)OCc1ccccc1 ?
Reply | 16

Ask | MIC for C[C@H](NC(=O)OCc1ccccc1)C(=O)Oc1ccc(Cl)cc1C(=O)Nc1ccc(Cl)c(Cl)c1 ?
Reply | 16

Ask | Can you share its MIC? I mean this molecule: O=C(N[C@H](Cc1ccccc1)C(=O)Oc1ccc(Cl)cc1C(=O)Nc1ccc(Br)cc1)OCc1ccccc1
Reply | 8

Ask | Recorded MIC for O=C(N[C@@H](Cc1ccccc1)C(=O)Oc1ccc(Cl)cc1C(=O)Nc1ccc(Cl)c(Cl)c1)OCc1ccccc1 , please?
Reply | 8

Ask | # MIC lookup, item CC(C)[C@@H](NC(=O)OCc1ccccc1)C(=O)Oc1cc(Cl)ccc1C(=O)Nc1ccc(Cl)cc1
Reply | 8

Ask | So what's the measured MIC for this one? O=C(N[C@H](Cc1ccccc1)C(=O)Oc1cc(Cl)ccc1C(=O)Nc1ccc(Cl)cc1)OCc1ccccc1
Reply | 8

Ask | Form field: reported MIC of CC(C)[C@H](NC(=O)OCc1ccccc1)C(=O)Oc1ccc(Cl)cc1C(=O)Nc1ccc(Br)cc1
Reply | 8

Ask | Query (molecule): CC(C)[C@H](NC(=O)OCc1ccccc1)C(=O)Oc1ccc(Cl)cc1C(=O)Nc1cccc(Cl)c1 ; field requested: MIC
Reply | 16

Ask | Requested read-out: MIC. Entry: C[C@@H](NC(=O)OCc1ccccc1)C(=O)Oc1ccc(Cl)cc1C(=O)Nc1ccc(Cl)c(Cl)c1
Reply | 8

Ask | What measured MIC goes with C[C@@H](NC(=O)OCc1ccccc1)C(=O)Oc1ccc(Cl)cc1C(=O)Nc1cccc(Cl)c1 ?
Reply | 16

Ask | Report MIC for CC(C)[C@H](NC(=O)OCc1ccccc1)C(=O)Oc1ccc(Cl)cc1C(=O)Nc1ccc(Cl)c(Cl)c1 please.
Reply | 8

Ask | // MIC lookup, key: CC(C)[C@@H](NC(=O)OCc1ccccc1)C(=O)Oc1ccc(Cl)cc1C(=O)Nc1ccc(Cl)cc1
Reply | 16

Ask | # get_value(readout='MIC', item= O=C(N[C@@H](Cc1ccccc1)C(=O)Oc1cc(Cl)ccc1C(=O)Nc1ccc(Cl)cc1)OCc1ccccc1 )
Reply | 8

Ask | Which MIC value is on record for C[C@H](NC(=O)OCc1ccccc1)C(=O)Oc1cc(Cl)ccc1C(=O)Nc1ccc(Cl)cc1 ?
Reply | 16
